assay type: physicochemical; settings: assay buffer: 50 µM DTPA in phosphate-buffered saline, pH 7.4
The following compounds are shown together with reported half-life values.
Form entry: value (min) — number only.

Some entries whose results are on file:
Look up half-life: [Na+].[O-]N=[N+]([O-])NC1CCCC1 3.6

Look up half-life: [Na+].[O-]N=[N+]([O-])NC1CCCCC1 6.1

Look up half-life: [Na+].[O-]N=[N+]([O-])NC1CCCCCCC1 5.4

# context switch: different compound, same half-life
Look up half-life: [Na+].[O-]N=[N+]([O-])NC1CCCCCC1 5.9

====

system: MCF-7 or MDA-MB-231 cells; test: MTT viability assay; type: cell-based, human; details: read-out: IC50 (cytotoxicity), 48 h, 10–100 µM
MEASURED ATTRIBUTE: IC50

Look up IC50: CC(=O)OCON=[N+]([O-])NC1CCCC1 [Compound 5] ~100 µM
